studyTarget: MDM2 (Homo sapiens)
Sequence (Q00987 1-125): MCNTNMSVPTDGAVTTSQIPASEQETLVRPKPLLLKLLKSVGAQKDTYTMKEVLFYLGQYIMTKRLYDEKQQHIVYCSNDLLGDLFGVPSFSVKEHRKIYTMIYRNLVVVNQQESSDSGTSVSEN
protocolDescription: Competitive fluorescence polarization assay for MDM2
Type: binding
particulars: competitive FP assay, MDM2; read-out: IC50 (MDM2)
pIC50: −log10 of the molar value. Where a SMILES comes first, the peptide text is derived from it. Bridges are numbered along the chain shown (N, C = ends). [ ]: non-standard residue; d: D form. R8 = C=CCCCCCC[C@@](C)(N)C(=O)O; Cha = N[C@@H](CC1CCCCC1)C(=O)O; Cba = N[C@@H](CC1CCC1)C(=O)O; S5 = C=CCCC[C@](C)(N)C(=O)O; Nle = CCCC[C@H](N)C(=O)O; Ac3c = NC1(C(=O)O)CC1
measuredProperty: pIC50

Look over these answered cases.
INSERT INTO measurements (compound, result) VALUES
  ('CCCC[C@H](NC(=O)[C@H](Cc1c[nH]c2ccccc12)NC(=O)[C@H](C)NC(=O)[C@]1(C)CCCC=CCCCCCC[C@@](C)(NC(=O)[C@H](Cc2ccccc2)NC(=O)[C@@H](NC(=O)[C@H](CC(C)C)NC(C)=O)[C@@H](C)O)C(=O)N[C@@H](CCC(=O)O)C(=O)N[C@@H](Cc2ccc(O)cc2)C(=O)N[C@@H](Cc2c[nH]c3ccccc23)C(=O)N[C@@H](C)C(=O)N[C@@H](CCC(N)=O)C(=O)N[C@@H](CC2CCC2)C(=O)N1)C(=O)N[C@H](C)C(N)=O [compound 271] (Ac-LTF[R8]EYWAQ[Cba][S5]AW[Nle][dA]-NH2; staple 4-11)', '> 8.00'),
  ('CCCC[C@H](NC(=O)[C@H](C)NC(=O)[C@H](C)NC(=O)[C@]1(C)CCCC=CCCCCCC[C@@](C)(NC(=O)[C@H](Cc2ccccc2)NC(=O)[C@@H](NC(=O)[C@H](CC(C)C)NC(C)=O)[C@@H](C)O)C(=O)N[C@@H](C)C(=O)N[C@@H](Cc2ccc(O)cc2)C(=O)N[C@@H](Cc2c[nH]c3ccccc23)C(=O)N[C@@H](C)C(=O)N[C@@H](CCC(N)=O)C(=O)N[C@@H](CC(C)C)C(=O)N1)C(=O)N[C@@H](C)C(=O)NCCC (single isomer, unassigned) [compound 423]', '7.00 to 8.00'),
  ('CC(=O)N[C@@H](Cc1ccccc1)C(=O)N[C@]1(C)CCCCCCC=CCCC[C@@](C)(C(=O)N[C@@H](C)C(=O)N[C@@H](C)C(=O)N[C@@H](CC2CCCCC2)C(N)=O)NC(=O)[C@H](CC(C)C)NC(=O)C2(CC2)NC(=O)[C@H](CCC(=O)O)NC(=O)[C@H](Cc2c[nH]c3ccccc23)NC(=O)[C@H](Cc2ccc(O)cc2)NC(=O)[C@H](C)NC1=O [compound 21] (Ac-F[R8]AYWE[Ac3c]L[S5]AA[Cha]-NH2; staple 2-9)', '6.00 to 7.00');

IN: Reported pIC50, compound CCCC[C@H](NC(=O)[C@H](C)NC(=O)[C@H](C)NC(=O)[C@]1(C)CCCC=CCCCCCC[C@@](C)(NC(=O)[C@H](Cc2ccccc2)NC(=O)[C@H](C)NC(=O)[C@H](C)NC(C)=O)C(=O)N[C@@H](CCC(=O)O)C(=O)N[C@@H](Cc2ccc(O)cc2)C(=O)N[C@@H](Cc2c[nH]c3ccccc23)C(=O)N[C@@H](C)C(=O)N[C@@H](CCC(N)=O)C(=O)N[C@@H](CC(C)C)C(=O)N1)C(=O)N[C@@H](C)C(N)=O [compound 371] (Ac-AAF[R8]EYWAQL[S5]AA[Nle]A-NH2; staple 4-11) : ____
OUT: 6.00 to 7.00

IN: Reported pIC50, compound CC(=O)N[C@@H](CCC(=O)O)C(=O)N[C@H](C(=O)N[C@@H](Cc1ccccc1)C(=O)N[C@]1(C)CCCCCCC=CCCC[C@@](C)(C(=O)N[C@@H](CO)C(=O)N[C@H](C(=O)N[C@@H](C)C(N)=O)C(C)C)NC(=O)[C@H](CC(C)C)NC(=O)[C@H](CCC(N)=O)NC(=O)[C@H](C)NC(=O)[C@H](Cc2c[nH]c3ccccc23)NC(=O)[C@H](Cc2ccc(O)cc2)NC(=O)[C@H](C(C)C)NC1=O)[C@@H](C)O [compound 126] (Ac-ETF[R8]VYWAQL[S5]SVA-NH2; staple 4-11) : ____
OUT: > 8.00

Just for reference, patent US8927500B2 is where these values come from.
